# Test System: Beta-2 adrenergic receptor (Homo sapiens, UniProt P07550)
# Sequence (P07550 whole entry): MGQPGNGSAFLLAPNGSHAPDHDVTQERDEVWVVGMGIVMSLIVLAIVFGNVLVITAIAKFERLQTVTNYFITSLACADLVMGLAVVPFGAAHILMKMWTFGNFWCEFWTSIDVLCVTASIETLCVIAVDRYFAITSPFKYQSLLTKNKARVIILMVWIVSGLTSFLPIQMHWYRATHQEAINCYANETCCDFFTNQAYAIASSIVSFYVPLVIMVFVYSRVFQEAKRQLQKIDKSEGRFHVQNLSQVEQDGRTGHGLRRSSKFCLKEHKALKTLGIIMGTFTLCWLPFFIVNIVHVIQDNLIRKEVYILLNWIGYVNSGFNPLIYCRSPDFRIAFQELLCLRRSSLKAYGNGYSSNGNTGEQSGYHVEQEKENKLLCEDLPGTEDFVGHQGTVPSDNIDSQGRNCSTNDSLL
# Test Details: Agonist activity at human beta2 adrenoceptor expressed in H292 cells assessed as increase in cAMP accumulation after 60 mins by spectrophotometry
# Assay type: functional, cell-based
Endpoint Name: EC50 (nM)

Field: example entries. Status: answers known.
Structure String: O=c1[nH]c2c(O)ccc(CCNCCc3ccc(CNCCc4c(Cl)cccc4Cl)cc3)c2s1
Unit Of Measurement: nM
Readout Value: 100
--
Structure String: COc1ccccc1CCNCc1cccc(CCNC[C@H](O)c2ccc(O)c3[nH]c(=O)sc23)c1
Unit Of Measurement: nM
Readout Value: 0.316
--
Structure String: O=c1[nH]c2c(O)ccc([C@@H](O)CNCCc3cccc(CNCc4ccccc4F)c3)c2s1
Unit Of Measurement: nM
Readout Value: 0.631
--
Structure String: C[C@@H](NCc1ccccc1-c1ccc(CCNC[C@H](O)c2ccc(O)c3[nH]c(=O)sc23)cc1)c1ccccc1
Unit Of Measurement: nM
Readout Value: 3.98

(A) CCOc1ccccc1CNCc1cccc(CCNC[C@H](O)c2ccc(O)c3[nH]c(=O)sc23)c1
(B) O=c1[nH]c2c(O)ccc([C@@H](O)CNCCc3ccc(-c4cccc(CN5Cc6ccccc6C5)c4)cc3)c2s1
(C) O=c1[nH]c2c(O)ccc([C@@H](O)CNCCc3ccc(CNCCc4ccccc4)cc3)c2s1
(D) O=c1[nH]c2c(O)ccc([C@@H](O)CNCCc3cccc(CNCCCc4ccccn4)c3)c2s1
(E) O=c1[nH]c2c(O)ccc([C@@H](O)CNCCc3ccccc3CNCCc3ccccc3F)c2s1
Ask: Order these by EC50, descending, and give the full ranking. I would appreciate it if you listed the labels in the requested order.
Result: B, A, E, D, C
